A set of molecules tested on UniProt:Q12809, with measured IC50:
Give the value, in units of µM, as a plain number.

In [3]: df
Out[3]:
                                   molecule  measure  reading_unit  meas_value
0  COc1cc(-c2cn(C3CSc4ccccc4N(CC(F)(F)F)C3=O)nn2)ccc1-n1cnc(C)c1 (centres undefined)     IC50            µM        4.75

UniProt:Q12809 data for COc1cc(-c2cn(C3(C)CCc4ccccc4N(CC(F)(F)F)C3=O)nn2)ccc1-n1cnc(C)c1 (centres undefined) ; its IC50: 6

UniProt:Q12809 data for COc1cc(-c2cn(C3CCc4c(ccc(Br)c4F)N(CC(F)(F)F)C3=O)nn2)ccc1-n1cnc(C)c1 (centres undefined) ; its IC50: 0.53
